Consider the following molecules; for each one, report its viability at 1 µM.
System: BV-2
Test: Neuroprotective activity against LPS-induced neuronal damage in mouse BV-2 cells assessed as cell viability at 1 uM preincubated with compound for 1 hrs followed by LPS addition and measured after 24 hrs by Muse cell analyzer (reference value: 79.2 +/- 1.1 %)
Assay type: functional
Settings: time 25 hrs, read-out: Activity
Give a bare numeral; the unit % is implied.

Q: Would you mind telling me what viability at 1 µM value was observed for CCN(C)C(=O)Oc1cccc(N=C=S)c1 ?
Ans: 85.5

Q: Sample CCN(C)C(=O)Oc1cccc(C(N)=S)c1 — what was its viability at 1 µM?
Ans: 85.7

Q: Give its viability at 1 µM value. Item: CCN(C)C(=O)Oc1cccc(CN=C=S)c1
Ans: 85.3

Q: # input molecule: CCN(C)C(=O)Oc1cccc([C@H](C)N(C)C)c1 ; wanted: its viability at 1 µM
Ans: 84.1

Q: What measured viability at 1 µM goes with [Na+].[SH-] [SODIUM HYDROSULFIDE] ?
Ans: 87.2

###

Molecular target: Acetylcholinesterase (Rattus norvegicus, UniProt P37136)
Sequence (P37136 whole entry): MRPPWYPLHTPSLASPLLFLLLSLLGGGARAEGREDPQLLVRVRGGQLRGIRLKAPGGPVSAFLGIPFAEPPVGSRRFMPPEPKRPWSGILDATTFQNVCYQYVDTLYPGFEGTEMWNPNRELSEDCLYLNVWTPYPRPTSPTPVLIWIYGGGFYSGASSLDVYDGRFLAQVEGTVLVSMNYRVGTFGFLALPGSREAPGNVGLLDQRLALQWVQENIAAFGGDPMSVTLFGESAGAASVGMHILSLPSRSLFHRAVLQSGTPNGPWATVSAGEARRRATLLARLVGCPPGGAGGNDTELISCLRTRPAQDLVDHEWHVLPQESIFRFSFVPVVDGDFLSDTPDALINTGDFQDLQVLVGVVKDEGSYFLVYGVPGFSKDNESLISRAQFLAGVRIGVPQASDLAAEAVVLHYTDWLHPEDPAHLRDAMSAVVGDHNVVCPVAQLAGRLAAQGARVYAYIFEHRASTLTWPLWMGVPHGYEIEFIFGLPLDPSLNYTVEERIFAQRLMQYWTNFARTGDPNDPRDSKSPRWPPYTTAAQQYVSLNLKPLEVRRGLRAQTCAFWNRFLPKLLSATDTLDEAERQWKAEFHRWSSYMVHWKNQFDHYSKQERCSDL
experimentalEndpoint: IC50 (µM)
Please give a number only; it is taken to be in µM.

Q: Reported IC50, compound CCN(C)C(=O)Oc1cccc(CCN=C=S)c1 : ____
Ans: 1.37

Q: Entry under review: CCN(C)C(=O)Oc1cccc(C(N)=S)c1 . Reported IC50?
Ans: 0.44

Q: What does the data say about its IC50? Entry: CCN(C)C(=O)Oc1cccc(NC(=O)c2ccc(N=C=S)cc2)c1
Ans: 0.51

Q: Given the compound CCN(C)C(=O)Oc1cccc(NC(=O)COc2ccc(-c3cc(=S)ss3)cc2)c1 , what is its reported IC50?
Ans: 0.41

Q: // returns reported IC50 for input CCN(C)C(=O)Oc1cccc(N=C=S)c1
Ans: 0.87

Q: Entry CCN(C)C(=O)Oc1cccc(CN=C=S)c1 has what IC50?
Ans: 2.19

###

So I've got a bunch of compounds here, and I need their Activity values.
Test system: BV-2
Assay: Antioxidant activity in LPS-induced mouse BV-2 cells assessed as reduction in ROS production at 1 uM preincubated with compound for 1 hrs followed by LPS addition and measured after 24 hrs by Muse cell analyzer relative to control
Format: functional
Set-up: scale not given: the % may be the effect or the level left
Settings: time 25 hrs
Write the value in % as a bare number.

Q: Given the compound CCN(C)C(=O)Oc1cccc(C(N)=S)c1 , what is its reported Activity?
Ans: 23

Q: I'd like to know its Activity. The compound in question is CCN(C)C(=O)Oc1cccc(CCN=C=S)c1
Ans: 10

Q: Query: Activity; subject: CCN(C)C(=O)Oc1cccc(N=C=S)c1
Ans: 10

Q: Requested read-out: Activity. Entry: CCN(C)C(=O)Oc1cccc(CN=C=S)c1
Ans: 10

Q: For CCN(C)C(=O)Oc1cccc(NC(=O)c2ccc(N=C=S)cc2)c1 , what is its reported Activity?
Ans: 10

Q: # get_value(readout='Activity', item= [Na+].[SH-] [SODIUM HYDROSULFIDE] )
Ans: 27
